# measurementProtocol: Selectivity index, ratio of CC50 for human MT2 cells to EC50 for HIV1 3B
# Assay type: toxicity, cell-based
# details: MT2 cells, read-out: Ratio CC50/EC50
measureName: selectivity ratio
When you answer, write just the number.

Query string: // returns reported selectivity ratio for input CC(=O)CCc1cc(C)c(Oc2ccc(N)c(Nc3ccc(C#N)cc3)n2)c(C)c1
Result string: 1840

====

# maps each entry to its EC50
# Test system: Human immunodeficiency virus 1
# measurementProtocol: Antiviral activity against multidrug resistant HIV1 RTMDR containing reverse transcriptase L74V, M41L, V106A and T215Y mutant infected in human TZM-bl cells after 2 days by luciferase reporter gene assay
# details: Human immunodeficiency virus 1, RTMDR, 48 h
The reply should read as a number followed by its unit.

Recorded results for 3 molecules are shown here.
Cc1cc(Br)cc(C)c1Oc1ccc(N)c(Nc2ccc(C#N)cc2)n1	6.8 nM
Cc1cc(Br)cc(C)c1Oc1ccc([N+](=O)[O-])c(Nc2ccc(C#N)cc2)n1	77.6 nM
Cc1cc(/C=C/C#N)cc(C)c1Oc1ccc(N)c(Nc2ccc(C#N)cc2)c1	1.79 nM

Query string: Test system Human immunodeficiency virus 1; read-out EC50; what value for Cc1cc(/C=C/C#N)cc(C)c1Oc1ccc([N+](=O)[O-])c(Nc2ccc(C#N)cc2)c1 ?
Result string: 17 nM
